- Target Entity: guinea pig Sigma Receptor, Non-selective Binding, SIGMAR1 (gene 100135589) (UniProt Q60492)
- Sequence (Q60492 whole entry, looked up): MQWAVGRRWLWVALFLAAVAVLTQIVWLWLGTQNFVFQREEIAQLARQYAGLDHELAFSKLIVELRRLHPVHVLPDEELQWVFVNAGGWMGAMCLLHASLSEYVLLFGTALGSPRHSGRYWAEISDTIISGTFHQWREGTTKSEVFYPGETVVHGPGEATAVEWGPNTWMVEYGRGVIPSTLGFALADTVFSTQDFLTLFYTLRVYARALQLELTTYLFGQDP
- Test Name: NVS_OR_gSIGMA_NonSelective: NovaScreen (NVS) Nuclear Receptor Binding Assay for guinea pig Sigma Receptor, Non-selective Binding (AID 2283367)
Active and inactive are the calls of the source. The calls were made as follows: active = hit-call score of the fitted dose curve at least 0.9, where 1 is the maximum; inconclusive = response in the unintended direction; inactive = score below 0.9.
Reply using exactly one outcome from label 1 (active), label 0 (inactive)

1. Nc1ccc(-c2ccc(N)c(Cl)c2)cc1Cl label 1
2. CCOC(=O)/C=C(C)/C=C/C[C@@H](C)CCCC(C)C label 1
3. C[C@]12CCC(=O)C[C@@H]1CC[C@@H]1[C@@H]2CC[C@]2(C)[C@@H](O)CC[C@@H]12 label 1

Let us examine a further case.
[Q] For Nc1cccc2ccccc12 , which call appears in the assay record?
[A] label 0

Hello, the source for this data is PubChem BioAssay (EPA / NIEHS), in case you need it.
